system: RARb:RXRa (NR concentration 270 nM, RXRa partner concentration 90 nM); assay: PBM binding z-score (relative to random genomic background probes); higher = stronger binding; sequences stand for … in GC…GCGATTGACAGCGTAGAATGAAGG
Quick rule: PBM binding z-score of at least 2 means yes (1), below that means no (0).

biosequence=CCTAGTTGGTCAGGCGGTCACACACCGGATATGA study_system="RARb:RXRa (NR concentration 270 nM, RXRa partner concentration 90 nM)" group="no (0)"
biosequence=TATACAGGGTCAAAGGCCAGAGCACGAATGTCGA study_system="RARb:RXRa (NR concentration 270 nM, RXRa partner concentration 90 nM)" group="yes (1)"
biosequence=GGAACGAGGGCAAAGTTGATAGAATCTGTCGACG study_system="RARb:RXRa (NR concentration 270 nM, RXRa partner concentration 90 nM)" group="yes (1)"
biosequence=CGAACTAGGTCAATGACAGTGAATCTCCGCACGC study_system="RARb:RXRa (NR concentration 270 nM, RXRa partner concentration 90 nM)" group="yes (1)"
biosequence=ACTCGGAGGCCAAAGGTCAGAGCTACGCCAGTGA study_system="RARb:RXRa (NR concentration 270 nM, RXRa partner concentration 90 nM)" group="yes (1)"
biosequence=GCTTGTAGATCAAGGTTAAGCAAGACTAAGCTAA study_system="RARb:RXRa (NR concentration 270 nM, RXRa partner concentration 90 nM)" group="no (0)"
biosequence=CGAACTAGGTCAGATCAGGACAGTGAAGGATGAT study_system="RARb:RXRa (NR concentration 270 nM, RXRa partner concentration 90 nM)" group="yes (1)"
biosequence=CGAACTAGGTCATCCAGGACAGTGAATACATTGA study_system="RARb:RXRa (NR concentration 270 nM, RXRa partner concentration 90 nM)" group="yes (1)"
biosequence=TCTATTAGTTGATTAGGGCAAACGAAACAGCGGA study_system="RARb:RXRa (NR concentration 270 nM, RXRa partner concentration 90 nM)" group="no (0)"
biosequence=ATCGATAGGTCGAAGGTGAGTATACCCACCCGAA study_system="RARb:RXRa (NR concentration 270 nM, RXRa partner concentration 90 nM)" group="no (0)"
biosequence=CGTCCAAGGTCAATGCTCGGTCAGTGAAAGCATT study_system="RARb:RXRa (NR concentration 270 nM, RXRa partner concentration 90 nM)" group="yes (1)"
biosequence=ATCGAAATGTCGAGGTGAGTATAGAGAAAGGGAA study_system="RARb:RXRa (NR concentration 270 nM, RXRa partner concentration 90 nM)" group="no (0)"
